- target: PTGER4 (EP4) (Homo sapiens)
- Construct: host or cells: HEK 293 (PathHunter PTGER4 b-arrestin cell line)
- Sequence (P35408 whole entry): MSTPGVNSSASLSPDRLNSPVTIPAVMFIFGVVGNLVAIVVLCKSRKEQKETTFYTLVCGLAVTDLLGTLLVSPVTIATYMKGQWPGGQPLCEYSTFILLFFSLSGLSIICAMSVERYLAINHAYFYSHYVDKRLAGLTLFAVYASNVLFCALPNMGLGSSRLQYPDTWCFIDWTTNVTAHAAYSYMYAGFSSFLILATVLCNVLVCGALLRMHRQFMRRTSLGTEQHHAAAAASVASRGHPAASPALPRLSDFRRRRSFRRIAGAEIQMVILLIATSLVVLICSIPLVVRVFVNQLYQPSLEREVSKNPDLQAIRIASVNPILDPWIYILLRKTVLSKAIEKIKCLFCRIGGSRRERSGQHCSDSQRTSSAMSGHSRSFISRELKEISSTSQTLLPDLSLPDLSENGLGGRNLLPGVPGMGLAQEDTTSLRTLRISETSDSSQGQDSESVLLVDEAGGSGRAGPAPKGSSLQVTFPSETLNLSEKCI
- measurement_protocol: hEP4 b-arrestin assay (PathHunter HEK 293 PTGER4 b-arrestin cells)
- Assay type: cell-based
- condition_details: antagonistic activity, beta-arrestin assay; read-out: hEP4 b-arr IC50
value_kind: IC50 (nM)

>>> df
                                   compound  value_kind  unit_info  measurement
0  CCc1cc(-c2cc(NCCc3c(C)sc4c(C)cc(F)cc34)ncn2)sc1CC(=O)O [Example 197]        IC50         nM          146
1  COc1ccc(F)c2c(CCNc3cc(-c4ccc(C(=O)O)c(OC5CCC5)c4F)ncn3)c(C)sc12 [Example 146]        IC50         nM          357
2  CCCSc1cc(-c2cc(NCCc3c(C)sc4c(C)cccc34)ncn2)ccc1C(=O)O [Example 87]        IC50         nM          318
3  Cc1sc2c(C)cc(F)cc2c1CCNc1cc(-c2ccc(CC(=O)O)c(CC(C)C)c2)ncn1 [Example 182]        IC50         nM          164
4  Cc1cc(F)cc2c(CCNc3cc(-c4ccc(CC(=O)O)c(OC(C)C)c4)ncn3)c(C#N)sc12 [Example 171]        IC50         nM           57

[P] CCCn1cc(-c2cc(NCCc3c(C)sc4c(C)cc(F)cc34)ncn2)cc1C(=O)O [Example 201]
[Q] Cc1sc2c(C)ccc(F)c2c1CCNc1cc(-c2ccc(C(=O)O)c(OC3CCC3)c2)ncn1 [Example 136]
Hi team, can someone confirm which has the larger IC50: P or Q ? Thanks. Please reply using the label of the selected record. P
